# System: C57BL/6JL Lep ob/Lep ob mice
# assay: Blood lipid, glucose and enzyme levels in obese mice (ob/ob)
# Type: in vivo
# Design: unit not given here
# condition-set: 100 mg/kg for 26 days
Classify: true when GPT is strictly less than 40; false when GPT is not.

{"columns": ["molecule", "cat"],
 "data": [
  ["CC1(C)CC2=C(O1)c1ccccc1C(=O)C2=O [Compound 4]", "false"],
  ["CC1(c2ccccc2)CCC2=C(O1)c1ccccc1C(=O)C2=O (stereo not drawn) [Compound 26]", "true"],
  ["CC1OC2=C(C(=O)C(=O)c3ccccc32)C1(C)C (stereo not drawn) [Compound 2, Dunnione]", "false"],
  ["CC1C2=C(OC1(C)C)c1ccccc1C(=O)C2=O (stereo not drawn) [Compound 3]", "true"],
  ["CC(C)=C/C(C)=C/C1(C)CCC2=C(O1)c1ccccc1C(=O)C2=O (stereo not drawn) [Compound 14]", "false"],
  ["CC1CC2=C(O1)c1ccccc1C(=O)C2=O (stereo not drawn) [Compound 5]", "true"],
  ["Cc1ccc2c(c1)C1=C(CCC(C)(C)O1)C(=O)C2=O [Compound 22]", "false"]
]}
